Target: Human adrenergic α2B receptor (Homo sapiens, UniProt P18089)
Sequence (P18089 1-450): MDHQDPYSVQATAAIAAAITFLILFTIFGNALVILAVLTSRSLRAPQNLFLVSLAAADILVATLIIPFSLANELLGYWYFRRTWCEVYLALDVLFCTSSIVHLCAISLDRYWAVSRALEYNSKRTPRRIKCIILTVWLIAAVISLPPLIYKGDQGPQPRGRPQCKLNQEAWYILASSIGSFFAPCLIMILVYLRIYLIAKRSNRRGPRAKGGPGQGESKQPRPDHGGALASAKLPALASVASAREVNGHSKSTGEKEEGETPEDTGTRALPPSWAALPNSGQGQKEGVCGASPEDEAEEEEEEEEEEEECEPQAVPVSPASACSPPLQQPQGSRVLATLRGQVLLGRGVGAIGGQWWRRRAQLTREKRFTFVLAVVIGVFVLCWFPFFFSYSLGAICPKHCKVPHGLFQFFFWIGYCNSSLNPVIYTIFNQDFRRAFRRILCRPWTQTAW
Assay: Radioligand binding, adrenergic α2B (Protocol Group B)
Parameters: purchased Milipore (Millipore)
Conditions: 30 nM compound; Protocol Group B; read-out: Percentage inhibition of ligand binding, Adrenergic α2B (30 nM)
Attribute measured: inhibition at 0.03 µM (%)
Answer format: numeric, % implied, no suffix.

[Q] Request - read-out inhibition at 0.03 µM | tested on Human adrenergic α2B receptor (Homo sapiens, UniProt P18089) | compound Cc1ccc2c(c1)c1c(n2CC(O)c2ccncc2F)CCN2CCCC12 (stereo not drawn) [compound 14]
[A] 99

[Q] Try this compound next: CC(O)(Cn1c2c(c3cc(Cl)cc(F)c31)CN1CCCC1C2)c1cccnc1 (single isomer, unassigned) [63c]
[A] 71

[Q] Try this compound too: Cc1ccc2c(c1)c1c(n2CC(OC(N)=O)c2ccncc2)CCN(C)C1 (single isomer, unassigned)
[A] 27

[Q] Here is the next compound: Cc1ccc2c(c1)c1c(n2CC(C)(O)c2ccc(N)nc2)CCN(C)C1 (stereo not drawn)
[A] 65

[Q] Same read-out for Cc1cc(F)cc2c3c(n(CC(C)(O)c4cccnc4)c12)CCN1CCCC31 (stereo not drawn) [75b] ?
[A] -4

[Q] Lookup Cc1ccc2c(c1)c1c(n2CC(O)c2ccncc2F)CCN2CCCC12 (single isomer, unassigned) [14a]
[A] 81

[Q] How about this compound: Cc1ccc2c(c1)c1c(n2CC(C)(O)c2cccnc2)CC2CCCN2C1 (single isomer, unassigned) [38b]
[A] 72

[Q] Also check Cc1cc(Cl)c2c(c1)c1c(n2CC(C)(O)c2ccncc2)CCN2CCCC12 (single isomer, unassigned) [91a]
[A] 95

[Q] For OC(Cn1c2c(c3cc(Cl)cc(F)c31)C1CCCN1CC2)c1ccncc1 (single isomer, unassigned) [135a] then?
[A] 93

[Q] // same read-out, input: Cc1cc(F)cc2c3c(n(CC(C)(O)c4cccnc4)c12)CC1CCCN1C3 (single isomer, unassigned) [76d]
[A] 74

[Q] Also Cc1ccc2c(c1)c1c(n2CC(OCC2CCC2)c2ccncc2)CCN(C)C1 (single isomer, unassigned) [59a] , if possible.
[A] 98

[Q] Another compound to check: Cc1cc(C)c2c(c1)c1c(n2CC(C)(O)c2cccnc2)CCN2CCCC12 (single isomer, unassigned) [44a]
[A] 87

[Q] Try Cc1ccc2c(c1)c1c(n2CC(C)(O)c2ccc(OCC3CC3)nc2)CCN(C)C1 (stereo not drawn) next.
[A] 48

[Q] Also Cc1ccc2c(c1)c1c(n2CC(C)(O)c2ccncc2)CCN2CCCC12 (single isomer, unassigned) [13c] ?
[A] 30

[Q] // repeat for Cc1ccc2c(c1)c1c(n2CC(OC2CCCC2)c2ccncc2)CCN(C)C1 (single isomer, unassigned) [35a] and report
[A] 86

[Q] Record: Cc1ccc2c(c1)c1c(n2CC(C)(O)c2cccnc2)CCN(CC(F)F)C1 (stereo not drawn)
[A] -4

[Q] Repeat for the following compound: Cc1cc(Cl)c2c(c1)c1c(n2CC(O)c2ccncc2)CCN2CCCC12 (single isomer, unassigned) [142a]
[A] 92

[Q] Next: Cc1ccc2c(c1)c1c(n2CC(O)c2ccc(C(=O)N(C)C)nc2)CCN(C)C1 (stereo not drawn)
[A] 43

[Q] Similarly, Cc1cc(F)c2c(c1)c1c(n2CC(O)c2ccncc2)CCN2CCCC12 (single isomer, unassigned) [137a] ?
[A] 96

[Q] Would you kindly repeat that for OC(Cn1c2c(c3cc(F)ccc31)C1CCCN1CC2)c1ccncc1 (single isomer, unassigned) [18b] ?
[A] 97

[Q] # repeat for CC(O)(Cn1c2c(c3cc(C(F)(F)F)ccc31)CN1CCCC1C2)c1cccnc1 (single isomer, unassigned) [85a]
[A] 42

[Q] Now give it for CC(O)(Cn1c2c(c3cc(Cl)cc(F)c31)C1CCCN1CC2)c1ccncc1 (single isomer, unassigned) [52a] too.
[A] 100

[Q] Record: Cc1ccc2c(c1)c1c(n2CC(C)(O)c2cnc3ccccc3c2)CCN(C)C1 (single isomer, unassigned) [32a]
[A] 54

[Q] Another: Cc1ccc2c(c1)c1c(n2CC(O)c2ccc(C(=O)NC3CC3)nc2)CCN(C)C1 (stereo not drawn)
[A] 24

[Q] Same read-out for OC(Cn1c2c(c3cc(Cl)cc(F)c31)C1CCCN1CC2)c1ccncc1 (single isomer, unassigned) [135c] ?
[A] 10

[Q] Do the same for Cc1cc(F)c2c(c1)c1c(n2CC(C)(O)c2cccnc2)CCN2CCCC12 (single isomer, unassigned) [79b] please
[A] 95

[Q] Now the compound Cc1ccc2c(c1)c1c(n2CC(OC(C)C)c2ccncc2)CCN(C)C1 (stereo not drawn)
[A] 74

[Q] Now the same for Cc1ccc2c(c1)c1c(n2C[C@@H](OC2CCCC2)c2ccncc2)CCN2CCC[C@H]12
[A] 99

[Q] Now give it for Cc1cc(F)c2c(c1)c1c(n2CC(C)(O)c2cccnc2)CC2CCCN2C1 (single isomer, unassigned) [61c] too.
[A] 77

[Q] Entry to check: CCOC(Cn1c2c(c3cc(C)ccc31)CN(C)CC2)c1ccncc1 (single isomer, unassigned) [43a]
[A] 85

====

molecular target: Human adrenergic α2A receptor (Homo sapiens, UniProt P08913); test: Radioligand binding, adrenergic α2A (Protocol Group B); parameters: purchased Milipore (Millipore); settings: 0.3 μM compound; Protocol Group B; 0.3 µM
Sequence (P08913 whole entry): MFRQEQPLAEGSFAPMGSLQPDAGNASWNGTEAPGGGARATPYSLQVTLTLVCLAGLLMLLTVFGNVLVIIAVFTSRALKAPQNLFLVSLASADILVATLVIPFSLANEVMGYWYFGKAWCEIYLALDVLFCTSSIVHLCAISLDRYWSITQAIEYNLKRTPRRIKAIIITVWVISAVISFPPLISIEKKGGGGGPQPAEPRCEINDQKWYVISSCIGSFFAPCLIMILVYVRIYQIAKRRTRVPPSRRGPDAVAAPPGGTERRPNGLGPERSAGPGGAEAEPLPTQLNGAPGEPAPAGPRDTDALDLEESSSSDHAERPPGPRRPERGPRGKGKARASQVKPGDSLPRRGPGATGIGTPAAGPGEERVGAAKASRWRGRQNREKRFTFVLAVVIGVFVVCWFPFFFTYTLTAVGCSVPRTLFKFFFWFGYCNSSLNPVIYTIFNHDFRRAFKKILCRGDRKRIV
# binarize Percentage inhibition of ligand binding, Adrenergic α2A (0.3 μM): threshold 40% inclusive, high side YES, low side NO

[Q] Threshold query (Percentage inhibition of ligand binding, Adrenergic α2A (0.3 μM) >= 40%) on Cc1ccc2c(c1)c1c(n2CC(C)(O)c2cnc3ccccc3c2)CCN(C)C1 (stereo not drawn) [compound 32]
[A] NO

[Q] Now this one: Cc1cc(F)c2c(c1)c1c(n2CC(C)(O)c2ccncc2)CC2CCCN2C1 (single isomer, unassigned) [62d]
[A] NO

[Q] Ok, now Cc1ccc2c(c1)c1c(n2CC(C)(O)c2cccnc2)CCN(C)C1CO (single isomer, unassigned) [16b]
[A] NO

[Q] Also check Cc1cc(F)cc2c3c(n(CC(C)(O)c4ccncc4)c12)CCN1CCCC31 (single isomer, unassigned) [77a]
[A] NO

[Q] Also CC(O)(Cn1c2c(c3cc(F)cc(Cl)c31)C1CCCN1CC2)c1cccnc1 (single isomer, unassigned) [89d] ?
[A] YES

[Q] // repeat for Cc1ccc2c(c1)c1c(n2CC(C)(O)c2cncc(F)c2)CCN(C)C1 (single isomer, unassigned) [46a] and report
[A] NO

[Q] Check Cc1cc(Cl)c2c(c1)c1c(n2CC(C)(O)c2ccncc2)CCN2CCCC12 (single isomer, unassigned) [91d] too.
[A] NO

[Q] Ok, now Cc1ccc2c(c1)c1c(n2CC(C)(O)c2cccnc2)CC2CCCN2C1 (stereo not drawn) [41a]
[A] NO

[Q] Moving on to the next compound: Cc1ccc2c(c1)c1c(n2CC(C)(O)c2cccnc2)CC2CCC1N2C (single isomer, unassigned) [101c]
[A] NO

[Q] Same question, Cc1cc(F)c2c(c1)c1c(n2CC(C)(O)c2cccnc2)CC2CCCN2C1 (single isomer, unassigned) [61a] this time
[A] NO

[Q] Then what about the compound Cc1cc(F)cc2c3c(n(CC(C)(O)c4ccncc4)c12)CCN1CCCC31 (single isomer, unassigned) [77b] ?
[A] NO

[Q] And what about the compound Cc1cc2c3c(n(CC(C)(O)c4ccncc4)c2cc1Cl)CCN1CCCC31 (single isomer, unassigned) [50b] ?
[A] YES

[Q] Same lookup for Cc1ccc2c(c1)c1c(n2CC(O)c2ccncc2F)CCN2CCCC12 (single isomer, unassigned) [14b] , please.
[A] YES

[Q] Another compound to check: Cc1cc(C)c2c(c1)c1c(n2CC(C)(O)c2ccncc2)CCN2CCCC12 (single isomer, unassigned) [19b]
[A] YES

[Q] Then this compound: Cc1ccc2c(c1)c1c(n2CC(OCC2CCC2)c2ccncc2)CCN2CCCC12 (single isomer, unassigned) [138b]
[A] YES

[Q] Follow-up entry: Cc1ccc2c(c1)c1c(n2CC(O)c2ccccn2)CC2CCCN2C1 (single isomer, unassigned) [45b]
[A] NO

[Q] Try this compound next: Cc1ccc2c(c1)c1c(n2CC(C)(O)c2ccc(F)cc2)CC2CCC1N2C (single isomer, unassigned) [102a]
[A] NO

[Q] Repeat for the following compound: OC(Cn1c2c(c3cc(Cl)cc(F)c31)C1CCCN1CC2)c1ccncc1 (single isomer, unassigned) [135b]
[A] YES

[Q] Now consider Cc1ccc2c(c1)c1c(n2CC(C)(O)c2ccncc2)CC2CCCN2C1 (single isomer, unassigned) [37d] .
[A] NO

[Q] For Cc1ccc2c(c1)c1c(n2CC(C)(O)c2cnc3ccccc3c2)CCN(C)C1 (single isomer, unassigned) [32b] then?
[A] NO

[Q] What about Cc1cc(F)c2c(c1)c1c(n2CC(C)(O)c2cccnc2)CCN2CCCC12 (stereo not drawn) [Compound No. 79a] ?
[A] YES

[Q] Queued: CC(O)(Cn1c2c(c3cc(F)cc(Cl)c31)C1CCCN1CC2)c1ccncc1 (single isomer, unassigned) [88a]
[A] YES

[Q] Entry Cc1cc(C)c2c(c1)c1c(n2CC(C)(O)c2ccncc2)CCN2CCCC12 (single isomer, unassigned) [19d] please
[A] NO

[Q] // query: Cc1cc(F)cc2c3c(n(CC(C)(O)c4cccnc4)c12)CC1CCCN1C3 (single isomer, unassigned) [76c]
[A] NO

[Q] Further, for OC(Cn1c2c(c3cc(F)ccc31)C1CCCN1CC2)c1ccncc1 (stereo not drawn) [compound 18] ?
[A] NO

[Q] Can you handle Cc1cc2c3c(n(CC(C)(O)c4ccncc4)c2cc1Cl)CCN1CCCC31 (single isomer, unassigned) [50d] next?
[A] NO

[Q] Quick one: Cc1cc(F)c2c(c1)c1c(n2CC(C)(O)c2ccncc2)CCN2CCCC12 (single isomer, unassigned) [81b]
[A] YES

[Q] For Cc1ccc2c(c1)c1c(n2CC(C)(O)c2ccncc2)CCN2CCCC12 (single isomer, unassigned) [13d] then?
[A] NO

[Q] Would you kindly repeat that for Cc1cc(F)cc2c3c(n(CC(C)(O)c4ccncc4)c12)CC1CCCN1C3 (single isomer, unassigned) [78b] ?
[A] NO
